Field: EC50. Provide a value for each of the molecules that follow.
Experimental System: hTRPML1 (Homo sapiens, UniProt Q9GZU1)
Sequence (Q9GZU1 whole entry L15A/L16A/L577A/L578A, form open): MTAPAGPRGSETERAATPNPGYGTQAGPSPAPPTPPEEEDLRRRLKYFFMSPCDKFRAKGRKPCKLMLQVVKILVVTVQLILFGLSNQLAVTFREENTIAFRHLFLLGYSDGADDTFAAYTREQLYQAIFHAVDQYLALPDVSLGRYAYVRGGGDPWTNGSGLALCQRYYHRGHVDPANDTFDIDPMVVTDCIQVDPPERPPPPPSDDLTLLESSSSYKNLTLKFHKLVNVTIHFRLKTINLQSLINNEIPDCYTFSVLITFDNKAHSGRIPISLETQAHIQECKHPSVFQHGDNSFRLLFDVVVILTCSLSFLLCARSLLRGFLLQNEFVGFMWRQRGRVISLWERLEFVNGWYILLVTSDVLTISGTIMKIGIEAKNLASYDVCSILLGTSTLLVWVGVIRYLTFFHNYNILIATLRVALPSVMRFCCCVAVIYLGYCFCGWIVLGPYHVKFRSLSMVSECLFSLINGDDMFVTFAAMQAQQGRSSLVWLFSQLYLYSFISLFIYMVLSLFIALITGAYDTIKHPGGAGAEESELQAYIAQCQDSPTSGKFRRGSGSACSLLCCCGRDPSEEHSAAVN
Assay Procedure: TRPML1 fluorescent (Fluo-4) assay
Type: cell-based
Design: Secondary Screening: Fluo-4: hTRPML1: EC50 (M); HEK-293 Trex cells expressing hTRPML1
Cond: activation; HEK-293 Trex cells expressing hTRPML1; read-out: Secondary Screening: Fluo-4: hTRPML1: EC50

Q: So what's the measured EC50 for this one? CN(C1CCCC[C@@H]1NS(=O)(=O)c1ccc(S(=O)(=O)N(C)C)cc1)[C@@H]1CCN(c2ccc(Cl)cc2F)C1 (stereo partly drawn) [Compound 118]
A: < 300 nM

Q: Ok, now CN(C)S(=O)(=O)c1ccc(S(=O)(=O)Nc2ccccc2N2C[C@H]3C[C@@H]2CN3c2ccc(Cl)cc2F)cc1 [Compound 107]
A: 300 to 1000 nM

Q: Ok, now CN(C)S(=O)(=O)c1ccc(S(=O)(=O)Nc2ccccc2N2CCC3(CN(c4ccc(Cl)cc4F)C3)C2)cc1 [Compound 102]
A: 300 to 1000 nM
